Where do these numbers come from? They come from PubChem BioAssay (NCI).

System: MDA-MB-468 breast
Assay: NCI-60 one-dose screen, 48 h
Conditions: 10 µM unless noted
Compounds without any hit were thinned out: in the full panel of roughly 83,000, 20% have a hit. Active and inactive are the calls of the source. Rule for the calls: active = growth percent below 10; inactive = the rest.
Assign a class; possible classes are class 1 (active), class 0 (inactive)

The examples below pair each entry with its known result.
>>> qualitative_label("NC(=O)c1c(NC(=O)c2ccc3ccccc3c2)sc2c1CCC(=O)C2")
"class 0"
>>> qualitative_label("COc1ccc(C2=NNC(c3cc(Cc4ccc(O)c(C5CC(c6ccc(OC)cc6)=NN5)c4)ccc3O)C2)cc1 (stereo unspecified)")
"class 0"
>>> qualitative_label("CCC(C)NCC(=O)O (stereo unspecified)")
"class 0"
>>> qualitative_label("OCCN1CCCCCCC1")
"class 0"
>>> qualitative_label("C[C@]1(O)CC(=O)[C@]2(O)C3=C(C=C[C@]2(O)C1)C(=O)c1c(O)cccc1C3=O")
"class 1"
>>> qualitative_label("COc1ccc2[nH]c(-c3ccccc3)cc2c1")
"class 0"
>>> qualitative_label("O=CN1N=C(c2cccc(Nc3ccnc4cc(Cl)ccc34)c2)CC1c1ccc(Cl)cc1 (stereo unspecified)")
"class 1"
>>> qualitative_label("Oc1ccccc1-c1nnc(COc2ccc(Cl)cc2Cl)o1")
"class 0"

Prompt: How did this test come out for C1C[S+]2CC[S+]1CC2 ?
Completion: class 0

Prompt: So what was the verdict on CNC(=O)c1cc(Oc2ccc3nc(NC(=O)Nc4ccc(N5CCC(N(C)C)CC5)cc4)sc3c2)ccn1 in this test?
Completion: class 0

Prompt: Call for entry Cc1cc2c(C#N)n3c(c2cc1C)C(=O)C(c1ccccc1)Oc1ccccc1-3 (stereo unspecified) :
Completion: class 0
